# PROTOCOL: Visual Solubility Measurement
# Format: physicochemical
# TEST_CONTEXT: organic solvent or mixture, thermodynamic from solid; toluene, ambient temperature; read-out: Approximate Solubility
VALUE_TYPE: solubility

Quick check: solubility of COc1cccc(/C=N/N(C(=O)C(F)(F)F)c2ccc(C)cc2C)c1 [Form J147] ? > 80 mg/mL

---

# PROTOCOL: Visual Solubility Measurement
# Format: physicochemical
# TEST_CONTEXT: organic solvent or mixture, thermodynamic from solid; dichloromethane (DCM), ambient temperature; read-out: Approximate Solubility
VALUE_TYPE: solubility

Quick check: solubility of COc1cccc(/C=N/N(C(=O)C(F)(F)F)c2ccc(C)cc2C)c1 [Form J147] ? > 80 mg/mL

---

# PROTOCOL: Visual Solubility Measurement
# Format: physicochemical
# TEST_CONTEXT: organic solvent or mixture, thermodynamic from solid; chloroform, ambient temperature; read-out: Approximate Solubility
# Experimental: Visual Solubility Measurement: Approximately 80 mg of J147 was placed into each of 25 vials. Solvent was added and vials were stirred for several minutes at ambient temperature, followed by visual observation for remaining solids. The solvent was incrementally added until the solids were dissolved, or until a maximum volume of solvent was added and the experiment was terminated. These stock solutions were used to set up further panels of experiments.
VALUE_TYPE: solubility

Quick check: solubility of COc1cccc(/C=N/N(C(=O)C(F)(F)F)c2ccc(C)cc2C)c1 [Form J147] ? > 80 mg/mL

---

# PROTOCOL: Visual Solubility Measurement
# Type: physicochemical
# TEST_CONTEXT: organic solvent or mixture, thermodynamic from solid; dimethylacetamide (DMA), ambient temperature; read-out: Approximate Solubility
VALUE_TYPE: solubility

Quick check: solubility of COc1cccc(/C=N/N(C(=O)C(F)(F)F)c2ccc(C)cc2C)c1 [Form J147] ? > 80 mg/mL

---

# PROTOCOL: Visual Solubility Measurement
# Assay type: physicochemical
# TEST_CONTEXT: organic solvent or mixture, thermodynamic from solid; 1-butanol, ambient temperature; read-out: Approximate Solubility
VALUE_TYPE: solubility (mg/mL)
# value in mg/mL; strip the unit string

Quick check: solubility of COc1cccc(/C=N/N(C(=O)C(F)(F)F)c2ccc(C)cc2C)c1 [Form J147] ? 40

---

# PROTOCOL: Visual Solubility Measurement
# Assay type: physicochemical
# TEST_CONTEXT: organic solvent or mixture, thermodynamic from solid; 2-butanol, ambient temperature; read-out: Approximate Solubility
VALUE_TYPE: solubility (mg/mL)
# value in mg/mL; strip the unit string

Quick check: solubility of COc1cccc(/C=N/N(C(=O)C(F)(F)F)c2ccc(C)cc2C)c1 [Form J147] ? 40

---

# PROTOCOL: Visual Solubility Measurement
# Format: physicochemical
# TEST_CONTEXT: organic solvent or mixture, thermodynamic from solid; isopropyl acetate, ambient temperature; read-out: Approximate Solubility
VALUE_TYPE: solubility

Quick check: solubility of COc1cccc(/C=N/N(C(=O)C(F)(F)F)c2ccc(C)cc2C)c1 [Form J147] ? > 80 mg/mL

---

# PROTOCOL: Visual Solubility Measurement
# Assay type: physicochemical
# TEST_CONTEXT: organic solvent or mixture, thermodynamic from solid; isopropyl ether, ambient temperature; read-out: Approximate Solubility
VALUE_TYPE: solubility

Quick check: solubility of COc1cccc(/C=N/N(C(=O)C(F)(F)F)c2ccc(C)cc2C)c1 [Form J147] ? > 80 mg/mL

---

# PROTOCOL: Visual Solubility Measurement
# Assay type: physicochemical
# TEST_CONTEXT: organic solvent or mixture, thermodynamic from solid; acetonitrile (ACN), ambient temperature; read-out: Approximate Solubility
VALUE_TYPE: solubility

Quick check: solubility of COc1cccc(/C=N/N(C(=O)C(F)(F)F)c2ccc(C)cc2C)c1 [Form J147] ? > 80 mg/mL

---

# PROTOCOL: Visual Solubility Measurement
# Type: physicochemical
# TEST_CONTEXT: organic solvent or mixture, thermodynamic from solid; ethyl acetate, ambient temperature; read-out: Approximate Solubility
VALUE_TYPE: solubility

Quick check: solubility of COc1cccc(/C=N/N(C(=O)C(F)(F)F)c2ccc(C)cc2C)c1 [Form J147] ? > 80 mg/mL

---

# PROTOCOL: Visual Solubility Measurement
# Format: physicochemical
# TEST_CONTEXT: organic solvent or mixture, thermodynamic from solid; methanol, ambient temperature; read-out: Approximate Solubility
VALUE_TYPE: solubility

Quick check: solubility of COc1cccc(/C=N/N(C(=O)C(F)(F)F)c2ccc(C)cc2C)c1 [Form J147] ? > 80 mg/mL

---

# PROTOCOL: Visual Solubility Measurement
# Assay type: physicochemical
# TEST_CONTEXT: organic solvent or mixture, thermodynamic from solid; tetrahydrofuran (THF), ambient temperature; read-out: Approximate Solubility
# Experimental: Visual Solubility Measurement: Approximately 80 mg of J147 was placed into each of 25 vials. Solvent was added and vials were stirred for several minutes at ambient temperature, followed by visual observation for remaining solids. The solvent was incrementally added until the solids were dissolved, or until a maximum volume of solvent was added and the experiment was terminated. These stock solutions were used to set up further panels of experiments.
VALUE_TYPE: solubility

Quick check: solubility of COc1cccc(/C=N/N(C(=O)C(F)(F)F)c2ccc(C)cc2C)c1 [Form J147] ? > 80 mg/mL

---

# PROTOCOL: Visual Solubility Measurement
# Type: physicochemical
# TEST_CONTEXT: organic solvent or mixture, thermodynamic from solid; methyl ethyl ketone (MEK), ambient temperature; read-out: Approximate Solubility
VALUE_TYPE: solubility

Quick check: solubility of COc1cccc(/C=N/N(C(=O)C(F)(F)F)c2ccc(C)cc2C)c1 [Form J147] ? > 80 mg/mL

---

# PROTOCOL: Visual Solubility Measurement
# Format: physicochemical
# TEST_CONTEXT: organic solvent or mixture, thermodynamic from solid; trifluoroethanol, ambient temperature; read-out: Approximate Solubility
VALUE_TYPE: solubility

Quick check: solubility of COc1cccc(/C=N/N(C(=O)C(F)(F)F)c2ccc(C)cc2C)c1 [Form J147] ? > 80 mg/mL

---

# PROTOCOL: Visual Solubility Measurement
# Format: physicochemical
# TEST_CONTEXT: organic solvent or mixture, thermodynamic from solid; pyridine, ambient temperature; read-out: Approximate Solubility
VALUE_TYPE: solubility

Quick check: solubility of COc1cccc(/C=N/N(C(=O)C(F)(F)F)c2ccc(C)cc2C)c1 [Form J147] ? > 80 mg/mL

---

# PROTOCOL: Visual Solubility Measurement
# Format: physicochemical
# TEST_CONTEXT: organic solvent or mixture, thermodynamic from solid; butyl amine, ambient temperature; read-out: Approximate Solubility
VALUE_TYPE: solubility

Quick check: solubility of COc1cccc(/C=N/N(C(=O)C(F)(F)F)c2ccc(C)cc2C)c1 [Form J147] ? > 80 mg/mL

Where do these numbers come from? They come from patent US11584711B2.
